Recorded values, source patent US10150772B2.

I'd appreciate it if you could supply TGA values for the items below.
Format: physicochemical
Experimental Conditions: 40° C. and 75% RH, day 14
Structures can show the parent of a compound that is named as a salt.
One number for each entry, in %.

Known TGA results, listed for orientation:
>>> readout_value("COc1cccc2[nH]c3c4c(c5c(c3c12)C(=O)N(CN1CCN(C)CC1)C5=O)CCC4 [Acetate Salt, Form A1.5]")
16.1
>>> readout_value("COc1cccc2[nH]c3c4c(c5c(c3c12)C(=O)N(CN1CCN(C)CC1)C5=O)CCC4 [Glycolate Salt Hydrate, Form A1]")
2.6
>>> readout_value("COc1cccc2[nH]c3c4c(c5c(c3c12)C(=O)N(CN1CCN(C)CC1)C5=O)CCC4.O=C1CC[C@@H](C(=O)O)N1")
0.64

**Query** State the recorded TGA for this entry: COc1cccc2[nH]c3c4c(c5c(c3c12)C(=O)N(CN1CCN(C)CC1)C5=O)CCC4 [L-Malate Salt, Form A1]
**Result** 0.8
